Quick list: Population Healthy Nuclei (%) per entry.
test system: HEK-293T; assay: Multiplex assay against HEK293T; type: toxicity, cell-based; settings: human, 12 h, 1 µM, compound concentration 1 uM, replicate 1
assayEndpoint: Population Healthy Nuclei (%)

compound: CCOc1cc(N2CCC(O)CC2)ccc1Nc1ncc2c(n1)N(C1CCCC1)CCC(=O)N2C
observedMeasurement: 58%
--
compound: CCc1cc2c(cc1CC)CC(NC[C@H](O)c1ccc(O)c3[nH]c(=O)ccc13)C2 [INDACATEROL]
observedMeasurement: 47%
--
compound: c1ccc2oc(-c3csc(C4CCN(Cc5nc6ncccc6[nH]5)CC4)n3)cc2c1
observedMeasurement: 39%
--
compound: CCOc1cc2ncc(C#N)c(Nc3ccc(OCc4cccc(F)c4)c(Cl)c3)c2cc1NC(=O)/C=C/CN(C)C [HKI-357]
observedMeasurement: 59%
--
compound: Cc1cn(-c2cc(NC(=O)c3ccc4c(c3)CN(c3cncnc3)C[C@@H]4C)cc(C(F)(F)F)c2)cn1
observedMeasurement: 52%
--
compound: CCC(=O)O[C@]1(C(=O)SCF)[C@H](C)C[C@H]2[C@@H]3C[C@H](F)C4=CC(=O)C=C[C@]4(C)[C@@]3(F)[C@@H](O)C[C@@]21C [FLUTICASONE PROPIONATE]
observedMeasurement: 33%
--
compound: Nc1ccc(C(=O)Nc2cccc(-c3nc(N4CCOCC4)c4oc5ncccc5c4n3)c2)cn1
observedMeasurement: 15%
--
compound: CC(=O)c1cc(-c2cc(C(=O)NC3CC3)ccc2C)c2ncccn12
observedMeasurement: 27%
